Could you please report measured DC50 for the items listed next?
target: BRG1 (Homo sapiens, UniProt P51532); construct: either BRM primary antibody (Cell signaling Cat #11966) or BRG primary antibody (Abcam, ab 110641); endogenous in cells; host or cells: SW1573; assay: Immunofluorescence assay for BRG1 degradation in SW1573 cells; format: cell-based; conditions: 20 hours incubation, immunofluorescence mean nuclear signal, read-out: BRG1 IF Degradation IC50
Sequence (P51532 whole entry): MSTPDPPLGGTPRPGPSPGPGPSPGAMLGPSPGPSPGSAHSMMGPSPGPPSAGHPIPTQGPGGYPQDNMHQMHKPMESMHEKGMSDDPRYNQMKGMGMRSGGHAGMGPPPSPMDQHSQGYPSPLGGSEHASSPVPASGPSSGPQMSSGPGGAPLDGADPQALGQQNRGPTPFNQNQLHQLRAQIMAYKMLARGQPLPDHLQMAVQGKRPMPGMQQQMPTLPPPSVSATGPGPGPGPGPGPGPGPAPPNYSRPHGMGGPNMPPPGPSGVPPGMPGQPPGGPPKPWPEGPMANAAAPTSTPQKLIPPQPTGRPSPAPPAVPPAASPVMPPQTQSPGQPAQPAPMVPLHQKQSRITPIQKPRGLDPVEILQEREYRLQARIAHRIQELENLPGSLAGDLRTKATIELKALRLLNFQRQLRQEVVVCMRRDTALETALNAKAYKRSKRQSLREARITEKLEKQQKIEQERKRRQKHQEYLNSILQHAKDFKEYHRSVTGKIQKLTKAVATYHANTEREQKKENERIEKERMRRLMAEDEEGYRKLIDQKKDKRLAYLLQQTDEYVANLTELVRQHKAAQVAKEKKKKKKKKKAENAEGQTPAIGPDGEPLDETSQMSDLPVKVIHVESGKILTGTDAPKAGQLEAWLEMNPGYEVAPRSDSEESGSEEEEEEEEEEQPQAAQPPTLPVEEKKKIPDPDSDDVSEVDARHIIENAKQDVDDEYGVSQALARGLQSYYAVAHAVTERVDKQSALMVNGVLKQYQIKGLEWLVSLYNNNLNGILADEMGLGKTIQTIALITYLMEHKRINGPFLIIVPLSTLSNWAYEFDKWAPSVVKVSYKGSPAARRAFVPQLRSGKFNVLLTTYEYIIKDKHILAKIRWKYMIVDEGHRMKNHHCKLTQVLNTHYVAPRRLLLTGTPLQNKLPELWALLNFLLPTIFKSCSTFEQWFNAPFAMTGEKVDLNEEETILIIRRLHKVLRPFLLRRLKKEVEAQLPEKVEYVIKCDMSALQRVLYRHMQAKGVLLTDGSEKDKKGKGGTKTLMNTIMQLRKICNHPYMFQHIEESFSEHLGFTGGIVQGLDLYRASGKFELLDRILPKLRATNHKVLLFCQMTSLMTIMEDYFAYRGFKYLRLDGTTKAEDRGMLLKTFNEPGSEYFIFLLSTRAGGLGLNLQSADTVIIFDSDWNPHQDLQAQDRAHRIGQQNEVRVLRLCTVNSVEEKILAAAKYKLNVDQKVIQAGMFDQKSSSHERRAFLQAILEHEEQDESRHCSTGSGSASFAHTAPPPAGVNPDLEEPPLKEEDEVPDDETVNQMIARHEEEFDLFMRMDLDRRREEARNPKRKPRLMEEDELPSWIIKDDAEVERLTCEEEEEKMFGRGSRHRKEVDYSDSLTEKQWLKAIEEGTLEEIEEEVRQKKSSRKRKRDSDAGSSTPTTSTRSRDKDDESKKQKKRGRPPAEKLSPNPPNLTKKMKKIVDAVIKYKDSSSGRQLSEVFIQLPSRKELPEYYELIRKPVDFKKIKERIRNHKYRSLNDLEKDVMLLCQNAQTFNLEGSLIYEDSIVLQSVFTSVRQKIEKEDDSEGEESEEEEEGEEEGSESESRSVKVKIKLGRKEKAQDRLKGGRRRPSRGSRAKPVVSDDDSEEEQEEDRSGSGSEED

Exam item: Which DC50 is listed for Nc1nnc(-c2ccccc2O)cc1N1CC2CCC(C1)N2c1ccnc(C#CCN2CCC[C@]23CCNC3)c1 ?
Marked response: > 100 nM

Exam item: Look up DC50 for this compound: Nc1nnc(-c2ccccc2O)cc1N1CC2CCC(C1)N2c1ccnc(C#CCN2CCC(O)C2)c1 (stereo not shown)
Marked response: 10 to 100 nM

Exam item: Could you share which DC50 value was measured for Nc1nnc(-c2ccccc2O)cc1N1CC2CCC(C1)N2c1ccnc(C#CCN2CCCCC(O)(CF)C2)c1 (stereo not shown) ?
Marked response: < 10 nM

Exam item: Item CNC(=O)[C@@H]1CCCN1CC#Cc1cc(N2C3CCC2CN(c2cc(-c4ccccc4O)nnc2N)C3)ccn1 has what recorded DC50?
Marked response: > 100 nM

Exam item: Any idea what its DC50 is? The compound is Nc1nnc(-c2ccccc2O)cc1N1CC2CCC(C1)N2c1ccnc(C#CCN2CCC23CCC3)c1
Marked response: < 10 nM

Exam item: Please look up its DC50: Nc1nnc(-c2ccccc2O)cc1N1CC2CCC(C1)N2c1ccnc(C#CCN2CCC3(CCCC3)C2)c1
Marked response: < 10 nM

Exam item: Name the reported DC50 value associated with the compound Nc1nnc(-c2ccccc2O)cc1N1CC2CCC(C1)N2c1ccnc(C#CCN2CC3(CC(F)C3)C2)c1
Marked response: < 10 nM

Hello, the source for this data is patent US11993599B2, in case you need it.
